Each recorded value in this set is attributed to the supplement of paper PMC10567573.

B1: TRIM43 (parent)
chain: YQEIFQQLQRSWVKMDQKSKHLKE

# Variants of: B1
# methodSummary: protein stability index of a GFP-peptide fusion (GPS, HEK-293T) (PSI 1-6); higher = more stable;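 further: lentivirally expressed fusions sorted by FACS into six bins by GFP to DsRed ratio, PSI derived from sequencing read proportions per bin multiplied by bin number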
# testContext: c terminus: a fixed tail appended

variantLabel	protein stability index
K20D	2
K18Y	1.86
Q6T	2.8
Q17R	2.19
V13L	1.92
K20H	2.19
Q9N	2.25
H21N	2.59
F5I	1.7
Y1K	3.46
Q17N	2.89
K23C	1.74
Q9R	3.11
Q7L	2.11
F5Y	2.57
W12C	2.34
Q17L	1.92
L22W	1.65
M15P	3.15
W12L	2.4
F5V	2.82
K23Y	1.58
E3I	2.29
K14G	2.6
E24T	1.91
K14Q	2.36
L8Y	2.66
L8T	3.24
Y1W	3.04
E3D	2.18
E3C	2.13
Q2N	2.14
L8C	2.44
W12I	2.29
K14P	2.19
Q6I	2.27
K14E	2.92
R10G	3.03
K20E	2.85
V13C	2.02
S11C	1.97
W12T	2.88
M15K	2.61
H21E	2.68
M15W	1.48
Q6C	2.07
Q9H	1.95
L22I	2.21
M15Y	2.05
Q9S	2.58
K14H	2.04
S19T	2.86
K23M	2.33
Q2S	1.22
E3N	1.58
K20Q	2.36
M15T	2.53
E24C	2.13
S11W	1.56
K14C	1.97
S19V	2.12
K20G	2.31
H21I	2.09
K23A	2.92
W12P	3.48
K14Y	2.2
H21Y	2.27
Q6F	1.93
Q6K	1.85
S19Y	3
F5L	2.65
K14N	2.99
I4N	1.61
K14T	2.25
I4F	1.8
L22M	2.13
Q2V	1.72
